The reader will find reported EC50 values listed item by item below.
system name: human 5-HT2C receptor (Homo sapiens, UniProt P28335, I156V/I160V/N158S)
Sequence (P28335 33-458 I156V/N158S/I160V limits assumed): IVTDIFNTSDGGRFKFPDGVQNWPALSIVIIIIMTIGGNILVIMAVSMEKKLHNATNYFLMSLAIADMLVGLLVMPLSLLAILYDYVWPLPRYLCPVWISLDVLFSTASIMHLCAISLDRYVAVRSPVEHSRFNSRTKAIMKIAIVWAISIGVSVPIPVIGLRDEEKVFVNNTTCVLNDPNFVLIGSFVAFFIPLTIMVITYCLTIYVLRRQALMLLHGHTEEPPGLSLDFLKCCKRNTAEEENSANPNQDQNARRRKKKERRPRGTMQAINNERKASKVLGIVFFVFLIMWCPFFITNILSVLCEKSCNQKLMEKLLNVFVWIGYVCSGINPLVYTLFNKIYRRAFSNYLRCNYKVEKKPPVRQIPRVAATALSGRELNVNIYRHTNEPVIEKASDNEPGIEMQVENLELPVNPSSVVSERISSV
assay info: cell-based
Numbers only here, please. The scale is nM.

Use these answered entries as a reference point.
[[record]]
compound = "O=C(C1CN(c2c3c(nc4ccnn24)CCNCC3)C1)N1CCOC(c2ccccc2)C1 (centres unmarked)"
observed = 94

[[record]]
compound = "Cc1cnn2c(N3CC(C(=O)N4CCc5ccc(C(F)(F)F)cc54)C3)c3c(nc12)CCNCC3"
observed = 266

[[record]]
compound = "CN(Cc1cccc(Cl)c1Cl)C(=O)C1CN(c2c3c(nc4ccnn24)CCNCC3)C1"
observed = 107

[[record]]
compound = "CN(Cc1ccc2ccccc2c1)C(=O)C1CN(c2c3c(nc4ccnn24)CCNCC3)C1"
observed = 33

[[record]]
compound = "O=C(C1CN(c2c3c(nc4ccnn24)CCNCC3)C1)N1CC[C@H](Oc2cccc(Cl)c2)C1"
observed = 103


QUERY: Which EC50 value is on record for O=C(C1CN(c2c3c(nc4c(Br)cnn24)CCNCC3)C1)N1CCC2(CCC2)C1 ?
RESULT: 60

QUERY: # EC50 lookup, item CC(C)C1CCN(C(=O)C2CN(c3c4c(nc5ccnn35)CCNCC4)C2)CC1
RESULT: 23

QUERY: // lookup EC50 for O=C(C1CN(c2c3c(nc4ccnn24)CCNCC3)C1)N1CC=CC1
RESULT: 308

QUERY: Return reported EC50; argument: CN1CCC2(CCN(c3c4c(nc5ccnn35)CCNCC4)CC2)C1=O
RESULT: 1660

QUERY: What value of EC50 has been reported for the following compound? CN(Cc1ccc(Cl)cc1)C(=O)C1CN(c2c3c(nc4c(Br)cnn24)CCNCC3)C1
RESULT: 87

QUERY: Fill in the blank: the reported EC50 of Cc1ccccc1N1CCN(C(=O)C2CN(c3c4c(nc5ccnn35)CCNCC4)C2)CC1 is ____.
RESULT: 9

QUERY: Given the entry O=C(C1CN(c2c3c(nc4ccnn24)CCNCC3)C1)N1CCC(c2cccc(Cl)c2)CC1 , report its measured EC50.
RESULT: 56

QUERY: Any idea what EC50 was measured for C[C@H](c1ccccc1)N(C)C(=O)C1CN(c2c3c(nc4ccnn24)CCNCC3)C1 ?
RESULT: 465

QUERY: Consider the compound shown here: CC(C)OCCNC(=O)C1CN(c2c3c(nc4ccnn24)CCNCC3)C1 What is its recorded EC50?
RESULT: 111

###

system name: human 5-HT2C receptor (Homo sapiens, UniProt P28335, I156V/I160V/N158S)
assay info: cell-based
Each entry below lists one item and its recorded pEC50 value.
Field pEC50 (float): negative decimal logarithm of the concentration in molar.

[[record]]
compound = "CN1CCc2nc3ccnn3c(N3CC(C(=O)N4CCN(C(=O)C5CCCC5)CC4)C3)c2CC1 [Example 36.58]"
quantity_name = "pEC50"
observed = 6.35

[[record]]
compound = "CC1(C)CCC(NC(=O)C2CN(c3c4c(nc5ccnn35)CCNCC4)C2)CC1 [Example 37.53]"
quantity_name = "pEC50"
observed = 7.70

[[record]]
compound = "CC1(C)CC1CNC(=O)C1CN(c2c3c(nc4ccnn24)CCNCC3)C1 (centres unmarked) [Example 37.110]"
quantity_name = "pEC50"
observed = 6.59

[[record]]
compound = "COC[C@H]1CCCN1c1c2c(nc3ccnn13)CCNCC2 [Example 1.12]"
quantity_name = "pEC50"
observed = 6.29

[[record]]
compound = "COc1ccccc1OC1CN(c2c3c(nc4ccnn24)CCNCC3)C1 [Example 35.54]"
quantity_name = "pEC50"
observed = 7.07

[[record]]
compound = "CN(Cc1ccc(C(F)(F)F)cc1)C(=O)C1CN(c2c3c(nc4ccnn24)CCNCC3)C1 [Example 31.87]"
quantity_name = "pEC50"
observed = 7.44

[[record]]
compound = "Cc1cc(Cl)ccc1OC1CN(c2c3c(nc4ccnn24)CCNCC3)C1 [Example 35.20]"
quantity_name = "pEC50"
observed = 6.49

[[record]]
compound = "c1cc2c3c(cccc3c1)CN(c1c3c(nc4ccnn14)CCNCC3)C2 [Example 1.50]"
quantity_name = "pEC50"
observed = 6.03

[[record]]
compound = "Cc1cc(OCC2CN(c3c4c(nc5ccnn35)CCNCC4)C2)ccc1F [Example 15.4]"
quantity_name = "pEC50"
observed = 7.60

[[record]]
compound = "CN1CCC2(CCN(C(=O)C3CN(c4c5c(nc6ccnn46)CCNCC5)C3)CC2)C1=O [Example 31.151]"
quantity_name = "pEC50"
observed = 6.50


QUERY: Quick one: pEC50 for O=C1CN(C(=O)C2CN(c3c4c(nc5ccnn35)CCNCC4)C2)CCN1 [Example 37.12] ?
RESULT: 7.57

QUERY: Requested read-out: pEC50. Entry: O=C(C1CN(c2c3c(nc4ccnn24)CCNCC3)C1)N1CCC2(CCCC2)C1 [Example 31.123]
RESULT: 8.05

QUERY: Please give the measured pEC50 for this compound: CN(Cc1ccc(Br)cc1)C(=O)C1CN(c2c3c(nc4ccnn24)CCNCC3)C1 [Example 31.80]
RESULT: 7.52

QUERY: Give the measured pEC50 of FC(F)(F)c1ccc(OC2CN(c3c4c(nc5ccnn35)CCNCC4)C2)nc1 [Example 20.8] .
RESULT: 6.03

QUERY: Which pEC50 reading was recorded for the compound C#CC(C)(C)NC(=O)C1CN(c2c3c(nc4ccnn24)CCNCC3)C1 [Example 37.91] ?
RESULT: 6.52

QUERY: # input compound: O=C(NC1CC2CCC1C2)C1CN(c2c3c(nc4ccnn24)CCNCC3)C1 (centres unmarked) [Example 37.84] ; wanted: its pEC50
RESULT: 7.21

QUERY: Recorded pEC50 for Brc1cnn2c(N3CCC(c4ccccc4)C3)c3c(nc12)CCNCC3 (centres unmarked) [Example 2.2] , please?
RESULT: 7.25

###

system name: human 5-HT2C receptor (Homo sapiens, UniProt P28335, I156V/I160V/N158S)
assay info: cell-based
quantity name: EC50

A selection of reference data follows.
[[record]]
compound = "O=C(NC1CCC(F)(F)CC1)C1CN(c2c3c(nc4ccnn24)CCNCC3)C1"
observed = "126 nM"

[[record]]
compound = "O=C(C1CN(c2c3c(nc4ccnn24)CCNCC3)C1)N1CCC(CCc2ccc(F)cc2)CC1"
observed = "111 nM"

[[record]]
compound = "CC1Cc2ccccc2N1C(=O)C1CN(c2c3c(nc4ccnn24)CCNCC3)C1 (centres unmarked)"
observed = "380 nM"

[[record]]
compound = "O=C(C1CN(c2c3c(nc4ccnn24)CCNCC3)C1)N1CCc2c(F)cccc2C1"
observed = "33 nM"


# next compound below
QUERY: Recorded EC50 of O=C(C1CN(c2c3c(nc4ccnn24)CCNCC3)C1)N1CCc2c1ccc(F)c2F , please.
RESULT: 52 nM

###

system name: human 5-HT2C receptor (Homo sapiens, UniProt P28335, I156V/I160V/N158S)
assay info: cell-based
Mark 1 only when EC50 stays strictly below 100 nM. Values equal to the cut-off are 0.

Look over these answered cases.
[[record]]
compound = "CC(=O)N(C)C1CCN(C(=O)C2CN(c3c4c(nc5ccnn35)CCNCC4)C2)CC1"
assigned_label = 1

[[record]]
compound = "Clc1cccc(OC2CN(c3c4c(nc5ccnn35)CCNCC4)C2)c1"
assigned_label = 0

[[record]]
compound = "OCC1CN(c2c3c(nc4ccnn24)CCNCC3)C1"
assigned_label = 0

[[record]]
compound = "Fc1ccc(OCC2CN(c3c4c(nc5ccnn35)CCNCC4)C2)cc1Cl"
assigned_label = 1

[[record]]
compound = "O=C(C1CN(c2c3c(nc4ccnn24)CCNCC3)C1)N1CCCC(c2ccccc2)CC1 (stereo not drawn)"
assigned_label = 1

[[record]]
compound = "CC1CN(C(=O)C2CN(c3c4c(nc5ccnn35)CCNCC4)C2)CC(C)N1C (stereo not drawn)"
assigned_label = 1

[[record]]
compound = "CN1CCc2nc3ccnn3c(N3CC(C(=O)N4CCCN(C)CC4)C3)c2CC1"
assigned_label = 1


QUERY: EC50 under 100 nM? Item: CC1CCCN1c1c2c(nc3ccnn13)CCNCC2 (stereo not drawn)
RESULT: 0

###

system name: human 5-HT2C receptor (Homo sapiens, UniProt P28335, I156V/I160V/N158S)
assay info: cell-based
quantity name: EC50 (nM)
Field format: number, assumed nM, no unit text.

Examples from the recorded data:
[[record]]
compound = "O=C(C1CN(c2c3c(nc4ccnn24)CCNCC3)C1)N1CC2CC(c3ccccc3)(C2)C1"
quantity_name = "EC50"
observed = 95

[[record]]
compound = "CCC(CC)CNC(=O)C1CN(c2c3c(nc4ccnn24)CCNCC3)C1"
quantity_name = "EC50"
observed = 36

[[record]]
compound = "CN(Cc1ccc(Cl)cc1Cl)C(=O)C1CN(c2c3c(nc4ccnn24)CCNCC3)C1"
quantity_name = "EC50"
observed = 111


QUERY: Need EC50 of COCC1(CNC(=O)C2CN(c3c4c(nc5ccnn35)CCNCC4)C2)CCCC1 , thanks.
RESULT: 73

QUERY: Name the reported EC50 value associated with the compound c1ccc(CC2CN(c3c4c(nc5ccnn35)CCNCC4)C2)cc1
RESULT: 10

Values compiled from patent US20120165304A1.
